pIC50: −log10 of the molar value.
// each record: one item and its pIC50 for Human O-GlcNAcase (His-Tagged hOGA) (Homo sapiens (Human))

- molecule: "CC(c1ccc2c(c1)OCC2)N1CCN(c2ncc(S(C)(=N)=O)cn2)CC1 (single isomer, unassigned) [Example 13]"
  readout.kind: "pIC50"
  obs.value: "6.00 to 6.70"

query: Item: CC(c1ccc2c(c1)OCC2)N1CCN(c2ncc(S(C)(=N)=O)cn2)CC1 (single isomer, unassigned) [Example 16] Test system: Human O-GlcNAcase (His-Tagged hOGA) (Homo sapiens (Human)) Read-out: pIC50 Value: ?
result: > 7.30

query: Given the entry CC(C)N=S(C)(=O)c1cnc(N2CCN(C(C)c3ccc4scnc4c3)CC2)nc1 (racemic) , what pIC50 was observed with Human O-GlcNAcase (His-Tagged hOGA) (Homo sapiens (Human))?
result: 6.70 to 7.30

query: Find pIC50 (Human O-GlcNAcase (His-Tagged hOGA) (Homo sapiens (Human))) for the entry CC(c1ccc2scnc2c1)N1CCN(c2ncc(S(C)(=N)=O)cn2)CC1 (single isomer, unassigned) [Example 40]
result: 5.00 to 6.00

query: // fetch Human O-GlcNAcase (His-Tagged hOGA) (Homo sapiens (Human)) pIC50 for Cc1nc2cc(C(C)N3CCN(c4ncc(S(C)(=N)=O)cn4)CC3)ccc2o1 (racemic)
result: 6.70 to 7.30

query: Identify the measured pIC50 of CCS(=N)(=O)c1ccc(N2CCN(C(C)c3ccc4c(c3)OCC4)CC2)nc1 (racemic) for Human O-GlcNAcase (His-Tagged hOGA) (Homo sapiens (Human)).
result: > 7.30

query: Missing value: pIC50, Human O-GlcNAcase (His-Tagged hOGA) (Homo sapiens (Human)), entry Cc1nc2cc(C(C)N3CCN(c4ncc5c(n4)CCS(=N)(=O)C5)CC3)ccc2s1 (racemic) . Fill in?
result: > 7.30
